// provenance: ChEMBL document CHEMBL1122711

- Stated conditions: human, 20000 µM
- Description: Solubility ratio ([HbS+drug (20 mM)]/[HbS-drug]

>  <Molecule>
CN(C)c1ccc(OCC(=O)O)cc1.Cl

>  <Solubility ratio>
1.011

$$$$
>  <Molecule>
CSc1ccc(OCC(=O)O)cc1

>  <Solubility ratio>
1.16

$$$$
>  <Molecule>
CC(C)(OCc1ccc(Br)cc1)C(=O)O

>  <Solubility ratio>
1.193

$$$$
>  <Molecule>
O=C(O)COc1ccc2c(c1)Cc1ccccc1-2

>  <Solubility ratio>
1.067

$$$$
>  <Molecule>
O=C(O)CCOCc1ccc(Cl)c(Cl)c1

>  <Solubility ratio>
1.305

$$$$
>  <Molecule>
Cc1cc(C)cc(COCC(=O)O)c1

>  <Solubility ratio>
1.129

$$$$
>  <Molecule>
O=C(O)COc1ccc([N+](=O)[O-])cc1

>  <Solubility ratio>
1.329

$$$$
>  <Molecule>
Cc1cc(C)c(COCC(=O)O)c(C)c1

>  <Solubility ratio>
1.163

$$$$
>  <Molecule>
O=C(O)COc1cccc(Cl)c1Cl

>  <Solubility ratio>
1.09

$$$$
>  <Molecule>
O=C(O)COc1ccc(Br)cc1

>  <Solubility ratio>
1.18

$$$$
>  <Molecule>
O=C(O)COCc1ccc(Cl)c(Cl)c1

>  <Solubility ratio>
1.309

$$$$
>  <Molecule>
Cc1ccc(C)c(OCCCC(C)(C)C(=O)O)c1

>  <Solubility ratio>
1.117

$$$$
>  <Molecule>
O=C(O)COC(c1ccccc1)c1ccc(Cl)cc1 (centres undefined)

>  <Solubility ratio>
1.103

$$$$
>  <Molecule>
Cc1ccc(COCC(=O)O)cc1

>  <Solubility ratio>
1.137

$$$$
